# target-desc: Adrenergic receptor alpha-1 (Rattus norvegicus, UniProt P15823+P23944+P43140)
# assay-text: Binding affinity towards alpha-1 adrenergic receptor of rat frontal cortex using [3H]- WB- 4101 as a radioligand
# Assay type: tissue-based
quantity-measured: Ki (nM)

Examples with their reported Ki follow.
COc1ccccc1N1CCN(CCCCNC(=O)c2ccc(I)cc2)CC1 ... 15
CCCCC(=O)NCCCCN1CCN(c2ccccc2OC)CC1 ... 84
COc1ccccc1N1CCN(CCCCNC(=O)c2ccc(Cl)c(Cl)c2)CC1 ... 21
CC(=O)Nc1ccc(N2CCN(CCCCN3C(=O)c4ccccc4C3=O)CC2)cc1 ... 10000
O=C1c2ccccc2C(=O)N1CCCCN1CCN(c2ccccc2[N+](=O)[O-])CC1 ... 25

P. COc1ccccc1N1CCN(CCCCNC(=O)C23C[C@H]4C[C@@H](C2)C[C@@H](C3)C4)CC1
Q. O=C1c2ccccc2C(=O)N1CCCCN1CCN(c2cccc3ccccc23)CC1
Q: I would appreciate it if you could say which entry, P or Q , has the lower Ki value. Respond using the label that marks the chosen record.
Result: Q
(Q: 22 nM, P: 64 nM)

P. O=C1c2ccccc2C(=O)N1CCCCN1CCN(c2ccc([N+](=O)[O-])cc2)CC1
Q. COc1ccccc1N1CCN(CCCCNC(=O)c2ccc(N)cc2)CC1
Q: I would appreciate it if you could say which entry, P or Q , has the lower Ki value. Respond using the label that marks the chosen record.
Result: Q
